tested on: CD8+ T cells; assay: In vitro T-cell priming immunogenicity assay (aAPC with pMHC and anti-CD28, multimer staining); assay type: cell-based, human; details: HLA-A*02 restricted peptides; percentage of positive wells and donors (among evaluable)

substance | experimental-system | Wells positive [%]
3 (LTIDTQYYL; listed as Homo sapiens) [compound 3] | CD8+ T cells | “+” (<20% = +)
261 (FLPETRIMTSV; listed as Homo sapiens) [compound 261] | CD8+ T cells | “+” (<20% = +)
67 (LLATVNVAL; listed as Homo sapiens) [compound 67] | CD8+ T cells | “+” (<20% = +)

====

Molecular target: HLA-A*02:01 (Homo sapiens, UniProt P04439, D140Y/D185E/D98H/E176V/E277Q/G131W/G231S/I119V/I121R/I166T/I218V/L300P/L318F/N151K/N90K/P208A/P217A/Q86G/Q94H/R138H/R169H/T345S)
Test: MHC binding assay (UV-ligand exchange, beta2m ELISA)
Conditions: binding to HLA-A*02:01, UV-ligand exchange
Source text: Candidate peptides for T cell based therapies according to the present invention were further tested for their MHC binding capacity (affinity). The individual peptide-MHC complexes were produced by UV-ligand exchange, where a UV-sensitive peptide is cleaved upon UV-irradiation, and exchanged with the peptide of interest as analyzed. Only peptide candidates that can effectively bind and stabilize the peptide-receptive MHC molecules prevent dissociation of the MHC complexes. […]
attribute-measured: Peptide exchange (MHC class I binding score, peptide exchange yield)

substance | experimental-value
240 (ALVPTPALFYL; listed as Homo sapiens) [compound 240] | “+++” (≥50 = +++)
186 (FLDVSRDFV; listed as Homo sapiens) [compound 186] | “+++” (≥50 = +++)

====

Target: HLA-A*02:01 (Homo sapiens, UniProt P04439, D140Y/D185E/D98H/E176V/E277Q/G131W/G231S/I119V/I121R/I166T/I218V/L300P/L318F/N151K/N90K/P208A/P217A/Q86G/Q94H/R138H/R169H/T345S)
Test: MHC binding assay (UV-ligand exchange, beta2m ELISA)
Conditions: binding to HLA-A*02:01, UV-ligand exchange
Excerpt: Candidate peptides for T cell based therapies according to the present invention were further tested for their MHC binding capacity (affinity). The individual peptide-MHC complexes were produced by UV-ligand exchange, where a UV-sensitive peptide is cleaved upon UV-irradiation, and exchanged with the peptide of interest as analyzed. Only peptide candidates that can effectively bind and stabilize the peptide-receptive MHC molecules prevent dissociation of the MHC complexes. […]
attribute-measured: Peptide exchange (MHC class I binding score, peptide exchange yield)

substance | experimental-value
45 (FILDDSALYL; listed as Homo sapiens) [compound 45] | “+++” (≥50 = +++)
158 (KVQDVLHQV; listed as Homo sapiens) [compound 158] | “+++” (≥50 = +++)
145 (GLLHEVVSL; listed as Homo sapiens) [compound 145] | “+++” (≥50 = +++)
252 (YLGDLIMAL; listed as Homo sapiens) [compound 252] | “+++” (≥50 = +++)
142 (FLYEDSKSVRL; listed as Homo sapiens) [compound 142] | “+++” (≥50 = +++)

Looking for the measured Peptide exchange (MHC class I binding score, peptide exchange yield) of 163 (SIFDAVLKGV; listed as Homo sapiens) [compound 163] , can you help?
“++++” (≥75% = ++++)
